Tested on: Plasmodium falciparum D6 strain
Assay: in vitro anti-malarial activity, [3H]-ethanolamine incorporation method
Format: cell-based
Conditions: Plasmodium falciparum, D6; Table 1, reproduced from U.S. Pat. No. 5,977,077; read-out: IC50, μM vs. Plasmodium
Let's look at some compounds and their measured IC50.
# number only, unit µM dropped from output

1) O=c1c2cc(O)c(O)cc2oc2cc(O)c([C@@H]3O[C@H](CO)[C@@H](O)[C@H](O)[C@H]3O)c(O)c12 [Mangiferin, reference compound] :: 50

Asked: Fill in: IC50 of COc1c(O)cc2oc3cc(O)c(CC=C(C)C)c(O)c3c(=O)c2c1CC=C(C)C [Mangostin, reference compound] is ___
Given back: 5

Attribution: patent US6613797B2
